Ref: ChEMBL document CHEMBL5537183

- TARGET: E3 ubiquitin-protein ligase CBL-B (Homo sapiens, UniProt Q13191)
- Sequence (Q13191 whole entry, the tested form may be a part): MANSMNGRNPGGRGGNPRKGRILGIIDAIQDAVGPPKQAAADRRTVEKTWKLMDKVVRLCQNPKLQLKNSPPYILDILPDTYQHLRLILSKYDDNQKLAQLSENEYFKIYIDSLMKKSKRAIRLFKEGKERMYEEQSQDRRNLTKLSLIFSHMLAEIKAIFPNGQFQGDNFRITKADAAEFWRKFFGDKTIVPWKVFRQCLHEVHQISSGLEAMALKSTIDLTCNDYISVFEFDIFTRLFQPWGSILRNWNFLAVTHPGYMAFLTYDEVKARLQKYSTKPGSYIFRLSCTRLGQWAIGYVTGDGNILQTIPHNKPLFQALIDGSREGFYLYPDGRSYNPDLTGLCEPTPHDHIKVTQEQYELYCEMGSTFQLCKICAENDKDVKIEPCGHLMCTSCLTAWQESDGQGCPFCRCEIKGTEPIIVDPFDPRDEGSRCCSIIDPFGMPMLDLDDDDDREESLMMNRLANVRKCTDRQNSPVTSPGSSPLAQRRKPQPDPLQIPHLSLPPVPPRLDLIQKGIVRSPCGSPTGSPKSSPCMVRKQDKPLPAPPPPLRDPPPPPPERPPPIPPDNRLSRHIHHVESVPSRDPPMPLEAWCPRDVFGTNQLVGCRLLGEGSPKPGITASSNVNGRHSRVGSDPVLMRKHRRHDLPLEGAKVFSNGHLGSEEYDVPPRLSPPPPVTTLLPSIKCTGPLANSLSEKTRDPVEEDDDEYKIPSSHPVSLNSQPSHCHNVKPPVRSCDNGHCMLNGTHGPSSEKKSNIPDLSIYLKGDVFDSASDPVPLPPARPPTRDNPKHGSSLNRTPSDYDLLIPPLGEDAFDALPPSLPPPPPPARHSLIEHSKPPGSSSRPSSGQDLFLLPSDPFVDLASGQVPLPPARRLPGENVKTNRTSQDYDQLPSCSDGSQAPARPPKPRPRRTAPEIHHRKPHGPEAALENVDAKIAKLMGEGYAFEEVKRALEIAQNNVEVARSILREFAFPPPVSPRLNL
- METHOD_DESCRIPTION: Inhibition of biotinylated recombinant Cbl-b (36 to 427 residues)(unknown origin) expressed in Escherichia coli BL21(DE3) Tuner cells using a FAM-labeled probe by TR-FRET assay
PROPERTY_NAME: IC50 (nM)

[a] Cn1cc(Cn2cc(C(F)(F)F)cc(-c3cccc([C@]4(c5nncn5C)C[C@@H](C)C4)c3)c2=O)cn1
[b] Cc1c[nH]c(=O)c(-c2cccc([C@]3(c4nncn4C)C[C@@H](C)C3)c2)c1
[c] Cn1cnnc1[C@@H](c1cccc(-c2cc(C(F)(F)F)c[nH]c2=O)c1)C1CCC1 (racemic)
[d] Cn1cc(C(F)(F)F)c2cc(-c3cccc([C@]4(c5nncn5C)C[C@@H](C)C4)c3)c(=O)[nH]c21
Provide the items ranked by increasing IC50. Response format: the labels, sorted as the prompt asks.
a, c, d, b
